Tested on: Mycobacterium tuberculosis
experiment: Antibacterial activity against wild type Mycobacterium tuberculosis H37Rv-LP DREAM8 strain expressing codon-optimized DsRed assessed growth inhibition incubated for 5 days by fluorescence spectrophotometric assay
Type: functional
experimental.parameters: H37Rv-LP DREAM8, 120 h, time 5 day
Kindly state IC90 for each of the entries shown.

q: Using the record for Cc1ccc(-c2cc(C(F)(F)F)c3c(N)c(C(=O)Nc4cccc(C)c4C)sc3n2)cc1 , report its IC90.
a: > 100 µM

q: Using the record for COc1ccc(-c2cc(C(F)(F)F)c3c(N)c(C(=O)N4CC(F)(F)C4)sc3n2)cc1 , report its IC90.
a: > 50 µM

q: Using the record for COc1ccc(-c2cc(C(F)(F)F)c3c(N)c(C(=O)NC45CC6CC(CC(C6)C4)C5)sc3n2)cc1 , report its IC90.
a: 1.1 µM

q: Using the record for Nc1c(C(=O)N2CCCC2)sc2nc(-c3ccc4c(c3)OCO4)cc(C(F)(F)F)c12 , report its IC90.
a: > 100 µM

q: Using the record for COc1ccc(-c2cc(C(F)(F)F)c3c(N)c(C(=O)NC4CC5(C4)CN(C(=O)OC(C)(C)C)C5)sc3n2)cc1 , report its IC90.
a: > 100 µM

q: Using the record for CCNC(=O)c1sc2nc(-c3ccc(Cl)cc3Cl)cc(C(F)(F)F)c2c1N , report its IC90.
a: > 100 µM

q: Using the record for COc1ccc(-c2cc(C(F)(F)F)c3c(N)c(C(=O)Nc4cccc(C)c4C)sc3n2)cn1 , report its IC90.
a: 1.4 µM

q: Using the record for COc1ccc(-c2ccc3c(N)c(C(=O)Nc4cccc(C)c4C)sc3n2)cc1 , report its IC90.
a: > 100 µM

q: Using the record for Cc1cccc(NC(=O)c2sc3nc(-c4ccc5c(c4)OCO5)cc(C(F)(F)F)c3c2N)c1C , report its IC90.
a: 0.94 µM

q: Using the record for COC1CN(C(=O)c2sc3nc(-c4ccccc4)ccc3c2N)C1 , report its IC90.
a: > 100 µM

q: Using the record for Nc1c(C(=O)N2CC(F)(F)C2)sc2ncccc12 , report its IC90.
a: > 100 µM

q: Using the record for COc1ccc(-c2cc(C(F)(F)F)c3c(N)c(C(=O)N4CCCC4)sc3n2)cc1 , report its IC90.
a: > 50 µM

q: Using the record for Cc1cccc(CNC(=O)c2sc3nc(-c4ccc5c(c4)OCO5)cc(C(F)(F)F)c3c2N)c1C , report its IC90.
a: > 100 µM

q: Using the record for COc1ccc(-c2cc(C(F)(F)F)c3c(N)c(C(=O)NC4CCC(c5ccc(C(C)(C)C)cc5)CC4)sc3n2)cc1 (configuration not stated) , report its IC90.
a: > 10 µM

q: Using the record for COc1ccc(-c2ccc3c(N)c(C(=O)N4CCOCC4)sc3n2)cc1OC , report its IC90.
a: > 100 µM

q: Using the record for Nc1c(C(=O)N2CCOCC2)sc2nc(-c3ccoc3)ccc12 , report its IC90.
a: > 100 µM

q: Using the record for COc1ccc(-c2cc(C(F)(F)F)c3c(N)c(C(=O)NC(C)c4ccccc4)sc3n2)cc1 (configuration not stated) , report its IC90.
a: 0.63 µM

q: Using the record for Cc1cccc(NC(=O)c2sc3nc(-c4cccs4)cc(C(F)(F)F)c3c2N)c1 , report its IC90.
a: > 100 µM

q: Using the record for COc1ccc(-c2cc(C(F)(F)F)c3c(N)c(C(=O)NCc4ccccc4)sc3n2)cc1 , report its IC90.
a: > 100 µM

q: Using the record for COC1CN(C(=O)c2sc3ncccc3c2N)C1 , report its IC90.
a: > 100 µM

q: Using the record for COc1ccc(-c2cc(C(F)(F)F)c3c(N)c(C(=O)NC4COC4)sc3n2)cc1 , report its IC90.
a: > 100 µM

q: Using the record for COc1ccc(-c2cc(C(F)(F)F)c3c(N)c(C(=O)N4CCC4)sc3n2)cc1 , report its IC90.
a: > 100 µM
